Overview of recorded % Inhibition of Proliferation for various compounds
System: human psoriatic fibroblasts
Assay: Inhibition of human psoriatic fibroblast proliferation
Assay type: cell-based
Conditions: additional drug 10^-4 M with PTX 10^-4 M
# unit: % | format: bare number

Check out these entries, answers already filled in.
CCC(=O)OCC(=O)[C@@]1(OC(=O)CC)[C@@H](C)C[C@H]2[C@@H]3CCC4=CC(=O)C=C[C@]4(C)[C@@]3(F)[C@@H](O)C[C@@]21C [Betamethasone dipropionate, betamethasone dipropionate]    55.8
CC(C)(C)CC(=O)O [3,3dimethyl butyricacid, 3,3-dimethylbutyric acid]    19.3
CCCCCC(C)=O [2-Heptanone]    21.0

Let us move to another entry and its % Inhibition of Proliferation.
Inquiry: Determine from records and report % Inhibition of Proliferation for O=C(O)CCCCC1CCSS1 (stereo not shown) [Lipoicacid, lipoic acid]
Reply text: 14.5
